Cited source for all entries: patent US20090118184A1

system_tested: T1, factor VIIIa A1/A3C1C2 dimer, wild type (human, UniProt P00451 20-391; P00451 1709-2351)
T1 sequence 1: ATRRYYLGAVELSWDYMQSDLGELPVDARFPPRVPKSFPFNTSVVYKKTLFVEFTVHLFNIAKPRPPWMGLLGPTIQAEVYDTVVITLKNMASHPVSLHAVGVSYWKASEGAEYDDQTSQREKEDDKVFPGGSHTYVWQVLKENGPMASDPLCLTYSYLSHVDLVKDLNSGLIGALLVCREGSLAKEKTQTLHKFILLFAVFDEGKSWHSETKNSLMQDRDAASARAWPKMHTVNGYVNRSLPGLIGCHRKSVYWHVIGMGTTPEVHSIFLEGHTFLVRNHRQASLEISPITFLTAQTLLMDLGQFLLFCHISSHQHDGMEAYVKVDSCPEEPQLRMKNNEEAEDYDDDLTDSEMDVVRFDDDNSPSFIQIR
T1 sequence 2: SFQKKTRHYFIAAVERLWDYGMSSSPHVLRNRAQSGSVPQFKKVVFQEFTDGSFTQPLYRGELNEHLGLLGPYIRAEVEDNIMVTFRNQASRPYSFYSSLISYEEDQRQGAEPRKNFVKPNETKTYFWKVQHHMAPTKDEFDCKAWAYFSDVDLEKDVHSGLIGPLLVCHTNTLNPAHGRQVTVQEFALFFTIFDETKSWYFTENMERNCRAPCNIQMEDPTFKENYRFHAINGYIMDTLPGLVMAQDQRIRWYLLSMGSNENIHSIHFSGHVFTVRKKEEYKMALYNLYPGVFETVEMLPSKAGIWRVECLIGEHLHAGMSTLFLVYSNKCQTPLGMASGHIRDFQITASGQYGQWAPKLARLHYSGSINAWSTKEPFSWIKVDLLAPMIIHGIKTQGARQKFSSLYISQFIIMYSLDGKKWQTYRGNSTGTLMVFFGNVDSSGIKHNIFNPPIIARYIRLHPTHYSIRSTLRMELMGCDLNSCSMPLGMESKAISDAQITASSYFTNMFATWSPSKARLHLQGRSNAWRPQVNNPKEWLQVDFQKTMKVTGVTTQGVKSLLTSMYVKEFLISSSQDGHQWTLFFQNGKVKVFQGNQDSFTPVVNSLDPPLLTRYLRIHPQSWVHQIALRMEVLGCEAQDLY
run_description: cell-based or functional assay
observable: Factor VIIIa decay rate, FIXa (+) (min⁻¹)
Report as a plain number; the unit min⁻¹ is understood.

binder: factor VIIIa A2 subunit, N538A (other) SVAKKHPKTWVHYIAAEEEDWDYAPLVLAPDDRSYKSQYLNNGPQRIGRKYKKVRFMAYTDETFKTREAIQHESGILGPLLYGEVGDTLLIIFKNQASRPYNIYPHGITDVRPLYSRRLPKGVKHLKDFPILPGEIFKYKWTVTVEDGPTKSDPRCLTRYYSSFVAMERDLASGLIGPLLICYKESVDQRGNQIMSDKRNVILFSVFDENRSWYLTENIQRFLPNPAGVQLEDPEFQASNIMHSINGYVFDSLQLSVCLHEVAYWYILSIGAQTDFLSVFFSGYTFKHKMVYEDTLTLFPFSGETVFMSMENPGLWILGCHNSDFRNRGMTALLKVSSCDKNTGDYYEDSYEDISAYLLSKNNAIEPR
observable: Factor VIIIa decay rate, FIXa (+)
value_measured: 0.0144

Switching to the query record.
Short answer for factor VIIIa A2 subunit, S654A (other) SVAKKHPKTWVHYIAAEEEDWDYAPLVLAPDDRSYKSQYLNNGPQRIGRKYKKVRFMAYTDETFKTREAIQHESGILGPLLYGEVGDTLLIIFKNQASRPYNIYPHGITDVRPLYSRRLPKGVKHLKDFPILPGEIFKYKWTVTVEDGPTKSDPRCLTRYYSSFVNMERDLASGLIGPLLICYKESVDQRGNQIMSDKRNVILFSVFDENRSWYLTENIQRFLPNPAGVQLEDPEFQASNIMHSINGYVFDSLQLSVCLHEVAYWYILSIGAQTDFLSVFFAGYTFKHKMVYEDTLTLFPFSGETVFMSMENPGLWILGCHNSDFRNRGMTALLKVSSCDKNTGDYYEDSYEDISAYLLSKNNAIEPR : Factor VIIIa decay rate, FIXa (+) was 0.0145
